Test system: Trypanosoma cruzi
Experiment: WHO-TDR: Chagas disease
Type: functional, organism-based, Homo sapiens
Details: MRC5
Give IC50 for every item shown.

COc1cccc(NC(=O)NCCNc2ccc(Nc3cc(C)ccn3)nn2)c1 has a reported IC50 of > 11.8 µg/mL

Cc1nn(-c2ccccc2)c2[nH]cc(C(=O)Nc3ccc(F)c(Cl)c3)c(=O)c12 has a reported IC50 of 1.96 µg/mL

CCSc1ccccc1C(=O)Nc1nnc(-c2cccs2)o1 has a reported IC50 of 0.413 µg/mL

O=C(Nc1ccccc1)N1CCN(c2ccc(Nc3ccccn3)nn2)CC1 has a reported IC50 of > 11.3 µg/mL

COc1ccc(Cl)c2sc(N(CCCN(C)C)C(=O)c3ccc(Br)s3)nc12 has a reported IC50 of 1.77 µg/mL

COc1ccccc1N1CCN(C(CNS(=O)(=O)c2c(C)cc(C)cc2C)c2cccnc2)CC1 (stereo not given) has a reported IC50 of 0.929 µg/mL

CCOc1ccc2nc(N(Cc3cccnc3)C(=O)CSc3ccc(F)cc3)sc2c1 has a reported IC50 of 0.223 µg/mL

O=C(COc1ccccc1)Oc1ccc2nc(N3CCN(c4ccccc4)CC3)sc2c1 has a reported IC50 of 9.76 µg/mL

O=C(CSc1nnc(NC(=O)c2cc(Cl)ccc2Cl)s1)Nc1ccc2c(c1)OCO2 has a reported IC50 of 0.409 µg/mL

CSc1cccc(C(=O)N(Cc2cccnc2)c2nc3ccc(S(C)(=O)=O)cc3s2)c1 has a reported IC50 of 0.383 µg/mL
